Test system: cps1-1 and cps2-1
Test: pyrimidine rescue of cps1-1 and cps2-1 replication and plaque formation
Format: cell-based, Toxoplasma gondii
Conditions: 36-hour replication assay, HFF
Parameter: rescue of replication (doublings) of cps1-1 and cps2-1

{"Smiles text": "O=c1ccn([C@@H]2O[C@H](CO)[C@@H](O)[C@H]2O)c(=O)[nH]1", "Result": "poor"}
